Test system: DU-145 prostate
Experiment Description: NCI tumour cell line growth inhibition, 48 h
Value Type: TGI

- Cc1ccc(/C(O)=C/c2nc3ccccc3oc2=O)cc1: > 100 µM
- COc1ccc(CCN2C(=O)C=CC2=O)cc1OC: 31 µM
- C=CCCCC1CCCNC1=O (stereo not given): > 100 µM

// CC1=C(C(=O)Nc2ccc(F)c(Cl)c2)C(c2ccccc2Cl)NC(=S)N1 (stereo not given) : TGI value = > 50 µM

// CCOP(C)(=O)C(Cc1c[nH]c2ccccc12)C(=O)O (stereo not given) : TGI value = > 100 µM

// `CC(C)(C)OC(=O)N(O)[C@@H]1C=C[C@H](n2cnc3c(N)ncnc32)C1` : TGI value = > 100 µM

---

System: MCF7 breast
Experiment Description: NCI tumour cell line growth inhibition, 48 h
Value Type: GI50

- C/C=C(\C)C(=O)N[C@H]1CC[C@]2(C)C3CC[C@@]4(C)C(CC[C@@H]4C(C)N(C)C)C3CCC2[C@H]1OC(C)=O (stereo partly drawn): 1.27 µM
- CC(C)=CCC[C@H](C)[C@@H]1CC[C@]2(C)C3CC[C@]4(OC4(C)C)C(CCCO)[C@]3(C)CC[C@@]12C (stereo partly drawn): 18.1 µM
- N#C/C(=C\c1ccc(-c2ccc(Cl)cc2)o1)C(=O)Nc1ncc(Cc2ccc(Cl)cc2)s1: 2.51 µM
- CC1=CC(=NC(=O)CBr)C=C/C1=N\S(=O)(=O)c1ccccc1: 1.8 µM
- COc1cc2c3c(n(CCCCOC(=O)C(F)(F)F)c(=O)c2cc1OC)-c1cc2c(cc1C3=O)OCO2: > 48.8 µM
- O=[N+]([O-])c1ccc(Br)c([N+](=O)[O-])c1: 1.9 µM

Considering `CC1=C(C)C(=O)O[C@@H]([C@](C)(O)[C@]2(O)CC[C@@]3(O)[C@@H]4C[C@H]5O[C@]56[C@@H](O)C=CC(=O)[C@]6(C)[C@H]4CC[C@]23C)C1` , its GI50 with MCF7 breast was recorded as 0.164 µM

Considering `O=C1NN(c2ccc(C(=O)O)cc2)C(=O)/C1=C\c1ccc([N+](=O)[O-])o1` , its GI50 with MCF7 breast was recorded as 22.4 µM

---

Test system: SF-295 CNS
Experiment Description: NCI tumour cell line growth inhibition, 48 h; in the data active = GI50 below about 0.43 µM; inactive = the rest
In this exercise, the only acceptable responses are yes (active), no (inactive)

* COc1cc2nc3sc(C(=O)Nc4ccc(C(=O)OC(C)C)cc4)c(C(=O)Nc4ccc(Cl)cc4C)n3c(=O)c2cc1OC | no
* CC(C)(C)NC(C1=CC(C)(C)c2ccccc2C1=O)c1ccccc1 (stereo not given) | no
* COc1cc(C(=O)c2ccc3c(c2)OCO3)cc(OC)c1OC | no
* Cn1cncc1[C@@](N)(c1ccc(Cl)cc1)c1ccc2c(c1)c(-c1cccc(Cl)c1)cc(=O)n2C | no
* O=C(CN1CCN(c2ncnc3ccccc23)CC1)Nc1ccc(Cl)cc1C(=O)c1ccccc1Cl | no

Ask | // outcome(item) with item = `COc1ccc(-c2[nH]c3ccccc3c2C=C(C#N)C#N)cc1`
Reply | yes

Ask | // outcome(item) with item = `c1ccc(Cn2cc3c(c2-c2ccccc2)CCc2cnoc2-3)cc1`
Reply | no

Ask | // outcome(item) with item = `Cn1ccnc1C(=O)/C=C/c1ccc(C(=O)Nc2ccc(Cl)cc2)cc1`
Reply | no

Ask | // outcome(item) with item = `COc1cc(NS(C)(=O)=O)ccc1Nc1c2ccc(Cl)cc2nc2c(OC)cccc12`
Reply | yes

Ask | // outcome(item) with item = `Oc1ccccc1-c1nn(CNc2cccc(Cl)c2)c(=S)o1`
Reply | no
